Origin of measurements: PubChem BioAssay (NCI)

assay: NCI Yeast Anticancer Drug Screen. Data for the mlh1 rad18 strain (AID 175); conditions: S. cerevisiae mlh1 rad18 strain growth inhibition; at 50.0 µM; active compounds read high
This is part of a sample that, as a whole, favours compounds with a hit. Of some 79,000 tested, about 15% had one in any assay.

# compound, growth inhibition, %
rows = [
    ("Nc1nc(Nc2ccccc2)c2ncn(C3OC(CO)C(O)C3O)c2n1 (configuration not stated)", -12.3),
    ("CCOC(=O)/C=C1\\NCCc2ccccc21", 4.55),
    ("CC1=NN2C(=O)C(c3ccccc3)SC2=NC(C)(C)C1 (configuration not stated)", -7.25),
    ("CC(=O)O[C@@H]1C[C@H](C)CC(C)(C)C1", -3.1),
    ("C/C(=N\\NC(=S)Nc1ccc([N+](=O)[O-])cc1S(=O)(=O)O)c1ccccn1", 22.9),
    ("Nc1nc2ncc(CCCNc3ccc(C(=O)NC(CCC(=O)O)C(=O)O)cc3)nc2c(=O)[nH]1 (configuration not stated)", 22.1),
    ("O=C(NC1CCCCC1)Oc1ccc(Cl)cc1Cl", 31.9),
]

* * *

experiment: NCI Yeast Anticancer Drug Screen. Data for the mec2-1 strain (AID 157); settings: S. cerevisiae mec2-1 strain, at 50.0 µM
Compounds without any hit were thinned out: in the full panel of roughly 79,000, 15% have a hit. Active and inactive are the calls of the source. No stated cut-off is given here; in the data, active means growth inhibition above about 70%; inactive means the rest. Where a SMILES comes first, the peptide text is derived from it. The star is where a group is joined. ONb = O=[N+]([O-])c1ccc(CO*)cc1; Boc = CC(C)(C)OC(=O)*
Labels: active, inactive

# compound, assignedLabel
measured = [
    ("CSCSCC(CO)NC(=O)/C(C)=C\\c1c(C)[nH]c(=O)[nH]c1=O (stereo unspecified)", "inactive"),
    ("CCC/C=C/c1cc2c(cc1O)CC[C@@H]1[C@@H]2CC[C@]2(C)[C@@H](O)CC[C@@H]12", "inactive"),
    ("O=C(O)CCC(=O)Nc1ccccc1C(=O)O", "inactive"),
    ("COc1ccc(C2S/C(=C\\c3ccccc3)C(=O)N2NC(=O)Cc2ccccc2)cc1 (stereo unspecified)", "inactive"),
    ("O=C(/C=C/c1ccc(O)cc1)OC[C@@H](O)COC1OC(CO)C(O)C(O)C1O (stereo partly specified)", "inactive"),
    ("Cc1cccc(CN)n1", "inactive"),
    ("CC(C)CC(NC(=O)OC(C)(C)C)C(=O)NC(CCC(=O)OCc1ccc([N+](=O)[O-])cc1)C(=O)OCc1ccc([N+](=O)[O-])cc1 (stereo not drawn) (Boc-Leu-Glu(ONb)-ONb; configuration not given here)", "inactive"),
    ("CNC(=O)c1ccccc1CC(O)c1ccccc1 (stereo unspecified)", "inactive"),
    ("Nc1nnnn1-c1cccc(Cl)c1", "inactive"),
    ("Nc1nc(N)c2nc(-c3ccc([N+](=O)[O-])cc3)c(Cl)nc2n1", "inactive"),
    ("COc1ccc(C)cc1NC(=S)NC(=O)C(C)Oc1ccccc1 (stereo unspecified)", "inactive"),
    ("Cc1cc(Cc2cccc3ccccc23)nc2c1ccc1ccccc12", "inactive"),
    ("O=C(CCCn1ccnc1[N+](=O)[O-])NCCn1cnc([N+](=O)[O-])c1", "inactive"),
    ("CC(C)/C=N/N(CCOC(=O)Nc1cccc2ccccc12)C(=O)Nc1cccc2ccccc12", "inactive"),
    ("O=C(O)C(=Cc1ccnc2ccccc12)C(=O)O", "inactive"),
    ("CCSCC1C(=O)C23C(O)C1CCC2C12COC3(O)C(O)C1C(C)(C)CCC2O (stereo unspecified)", "inactive"),
    ("C[N+]1(CCc2ccccc2)CCOCC1", "inactive"),
    ("Clc1ccc(Nc2ncco2)cc1Cl", "inactive"),
    ("O=C1/C(=C/c2ccc(O)c(CN3CCCCC3)c2)CCC/C1=C\\c1ccc(O)c(CN2CCCCC2)c1", "inactive"),
    ("O=C(O)C1CCC(C(=O)O)S1 (stereo unspecified)", "inactive"),
    ("O=C(NCCO)Nc1ccccc1F", "inactive"),
    ("CCCCCCC(=O)/C=C/c1cccc(OCc2cccc(Cl)c2)c1", "inactive"),
    ("CC1(Br)CP(=O)(c2ccccc2)CC1Br (stereo unspecified)", "inactive"),
    ("Cc1cccc(C)c1NC(=S)NC1CC(C)CC(C)(C)C1 (stereo unspecified)", "inactive"),
    ("CC(=O)Nc1ccc(Cc2cc([N+](=O)[O-])cc([N+](=O)[O-])c2)cc1", "inactive"),
    ("O=C(CCC(=O)Nc1ccc(Cl)c(Cl)c1)CC(=O)c1ccc2ccccc2c1", "inactive"),
    ("Cc1ccsc1/C=N/NC(N)=S", "inactive"),
    ("N#CSC1CCCCC1SC#N (stereo unspecified)", "inactive"),
    ("O=C(c1nc2ccccc2[nH]c1=O)C(O)c1ccccc1 (stereo unspecified)", "inactive"),
    ("CCN(CC)c1c(C)c(-c2ccccc2)oc(=O)c1Cl", "inactive"),
    ("CCCC1(CCC)OC(=O)C(CC)(CC)C(=O)O1", "inactive"),
    ("CC(=O)NCCSSCCCCS(=O)O", "inactive"),
    ("O=c1[nH]c2ccccc2c2ccc(Br)cc12", "inactive"),
    ("COc1cccc2c1C(=O)c1c(O)c3c(c(O)c1C2=O)CC(O)(C(O)CO)CC3OC1CC(N2CCSCC2)C(O)C(C)O1 (stereo unspecified)", "active"),
    ("COC(=O)N/N=C/c1ccc(C)cc1", "inactive"),
    ("CCN(CC)C(=O)c1ccccc1", "inactive"),
]

* * *

assay: NCI Yeast Anticancer Drug Screen. Data for the sgs1 mgt1 strain (AID 161);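 note: 0% = growth of cultures given vehicle only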; conditions: S. cerevisiae sgs1 mgt1 strain, at 50.0 µM, active compounds read high
This is part of a sample that, as a whole, favours compounds with a hit. Of some 79,000 tested, about 15% had one in any assay.
Below, each of the compounds is paired with its reported growth inhibition value.

# compound, unitTag, growth inhibition
measured = [
    ("CCN1c2ccccc2CC(CCN(C)Cc2ccccc2)(C(N)=O)c2ccccc21 (stereo not drawn)", "%", -7.7),
    ("CCOC(=O)C(C)(Cc1cccc2ccccc12)C(=O)OCC", "%", 5.1),
    ("CC(=O)Nc1cc(N)ccc1C", "%", 1.65),
    ("COc1ccccc1C(=O)NO", "%", -22.9),
    ("O=C(O)CSCCOCCSCC(=O)O", "%", -17.1),
    ("O=C(O)C(CCc1ccccn1)c1ccccc1 (stereo not drawn)", "%", -26.2),
    ("Cc1cc(Cl)ccc1NC(=O)NC(C)(C)COC(=O)Nc1cccc(Cl)c1", "%", 23.4),
    ("COc1ccc(N=NC(=S)NNc2ccc(OC)cc2Oc2ccccc2)c(Oc2ccccc2)c1", "%", 29.4),
    ("O=C(O)CN1C(=O)c2ccc([N+](=O)[O-])cc2C1=O", "%", 2.3),
    ("C=C(/C=C/CCCC)NC(=O)OCc1ccccc1", "%", 8),
    ("C=CCOC(=O)CCC(C#N)(C#N)CCC(=O)OCC=C", "%", -0.4),
    ("CCOC(=O)Cc1nc2ccccc2[nH]c1=O", "%", 1.25),
    ("Nc1nc(N)nc(Cc2ccccc2)n1", "%", -17.9),
]

* * *

Below, each of the molecules is paired with its reported growth inhibition value.
assay: NCI Yeast Anticancer Drug Screen. Data for the bub3 strain (AID 167); conditions: S. cerevisiae bub3 mutant strain, at 50.0 µM, active compounds read high
The panel holds about 79,000 compounds, 15% with a hit somewhere; the sample as a whole holds those more often.

# molecule, unitTag, growth inhibition
measured = [
    ("O=C1c2ccc(O)cc2OC(c2ccc(O)c(O)c2)C1O (configuration not stated)", "%", 6),
    ("COC(=O)c1ccc(/C=C2\\N=C(C)OC2=O)cc1", "%", -22.8),
    ("N#CCCCCCCl", "%", -15.6),
    ("Cc1ccc2c(c1)C(c1ccccc1)(c1ccccc1)OC2", "%", 10.4),
    ("COC(=O)NC(=O)CCC(=O)O", "%", 7),
    ("O=C(/C=C\\c1ccc(Cl)cc1)c1ccccc1", "%", 12.7),
    ("CCOC(=O)C(C#N)CCC(C)=O (configuration not stated)", "%", -7.8),
    ("O=C1C=CC(=NN=c2c3ccccc3oc3ccccc23)C=C1", "%", 12.7),
    ("Cc1cccc(NC(=O)COc2ccc(Cl)cc2)c1C", "%", 13.1),
    ("Nc1nc(N)c2nc(-c3ccc(O)cc3)c(-c3ccc(O)cc3)nc2n1", "%", 7.9),
    ("COC1=C2CC(C)CC(OC)C(OC(C)=O)C(C)/C=C(\\C)C(OC(N)=O)C(OC)/C=C\\C=C(/C)C(=O)NC(=CC1=O)C2=O (configuration not stated)", "%", 90.7),
    ("CC(C)c1ccccc1OC(=O)NC1CCCCC1", "%", 14.7),
]
